pIC50: −log10 of the molar value.
In what follows, each item is paired with its pIC50 for VEGFR-2 (Homo sapiens).

# MOLECULE, pIC50
measured = [
    ("COc1ccc(C2NC(=O)NC(C)=C2C(=O)OC(C)C)cc1O (stereo not shown)", 8.33),
    ("COc1cc(C2NC(=S)NC(C)=C2C(=O)OC(C)C)cc(OC)c1OC (stereo not shown)", 8.28),
    ("COc1cc(C2NC(=O)NC(C)=C2C(=O)OC(C)C)ccc1OCc1ccccc1 (stereo not shown)", 8.46),
    ("CC1=C(C(=O)OC(C)C)C(c2cccc(O)c2)NC(=O)N1 (stereo not shown)", 8.38),
]

* * *

- Tested on: four human cancer cell lines (A-549, MCF-7, Panc-1, HT-29)
- PROCEDURE DETAILS: Cytotoxicity assay, average over the four cancer cell lines
- Format: cell-based
- RUN CONDITIONS: read-out: cytotoxic activity average IC50 (GI50)
pIC50: −log10 of the molar value.

# MOLECULE, pIC50
records = [
    ("CC1=C(C(=O)OC(C)C)C(c2cccc(O)c2)NC(=S)N1 (stereo not drawn)", 7.15),
    ("COc1ccc(C2NC(=O)NC(C)=C2C(=O)OC(C)C)cc1OC (stereo not drawn)", 7.28),
    ("CC1=C(C(=O)OC(C)C)C(c2ccc(O)cc2)NC(=O)N1 (stereo not drawn)", 7.21),
    ("COc1ccc(C2NC(=O)NC(C)=C2C(=O)OC(C)C)cc1O (stereo not drawn)", 7.39),
    ("CC1=C(C(=O)OC(C)C)C(c2cccc(O)c2)NC(=O)N1 (stereo not drawn)", 7.43),
    ("COc1cc(C2NC(=O)NC(C)=C2C(=O)OC(C)C)cc(OC)c1OC (stereo not drawn)", 7.24),
    ("COc1cc(C2NC(=S)NC(C)=C2C(=O)OC(C)C)ccc1O (stereo not drawn)", 7.31),
    ("COc1ccc(C2NC(=S)NC(C)=C2C(=O)OC(C)C)cc1OC (stereo not drawn)", 7.17),
    ("COc1cc(C2NC(=S)NC(C)=C2C(=O)OC(C)C)cc(OC)c1OC (stereo not drawn)", 7.35),
    ("COc1cc(C2NC(=O)NC(C)=C2C(=O)OC(C)C)ccc1O (stereo not drawn)", 7.12),
    ("COc1cc(C2NC(=O)NC(C)=C2C(=O)OC(C)C)ccc1OCc1ccccc1 (stereo not drawn)", 7.46),
    ("CC1=C(C(=O)OC(C)C)C(c2ccc(O)cc2)NC(=S)N1 (stereo not drawn)", 7.17),
]
